Test system: HepG2 viability, CellTiter-Glo ATP luminescence, 72 h
Assay: viability loss in human hepatoma cells – cell-based, CellTiter-Glo luminescence, cherry-pick, set 2, cytotoxicity control, dose response (AID 743395)
PROPERTY: AC35

Worked examples follow.
COc1ccc(S(=O)(=O)Nc2ccc3c(c2)C(=O)N([C@H](C)CO)C[C@@H](C)[C@@H](CN(C)Cc2ccc(Cl)c(Cl)c2)O3)cc1: 14.1 µM
CC(=NNC(=S)N1CCCCC1)c1cccc(C)n1: 15.6 µM
O=C(NN=C1CCCC1)c1[nH]c2ccc(Cl)cc2c1-c1ccccc1: 18.9 µM

Please supply AC35 for each of the following items, keeping them in order.
1. COc1ccc(N2CCc3c(C)nc4c(OC)cc(OC)cc4c32)cc1
2. COc1cccc(C2c3cc4c(cc3OC(NNC(N)=O)C2C)OCO4)c1O (stereo not given)

1: 9.38 µM; 2: 14.3 µM

The origin of these recorded values is PubChem BioAssay AID743395.
